target_of_assay: recombinant human TFPI (tissue factor pathway inhibitor) (human, UniProt P10646 29-304)
assay_overview: cell-based or functional assay
For each of the binders below, state its FXa assay % of FXa alone, 5 nM Ab, 10 nM TFPI.
Answers are plain numbers, in %.

Solved entries (count: 3):
binder | result_value
clone 3007 (antibody, V domains shown) VH: EVQLVESGGGLVKPGGSLRLSCAASGFTFTSYAMNWVRQAPGKGLEWVSTITLGGSYTYYADSVQGRFTISRDNAKNSLYLQMNSLRAEDTAVYYCARQDGNFLMDYWGQGTLVTVSS VL: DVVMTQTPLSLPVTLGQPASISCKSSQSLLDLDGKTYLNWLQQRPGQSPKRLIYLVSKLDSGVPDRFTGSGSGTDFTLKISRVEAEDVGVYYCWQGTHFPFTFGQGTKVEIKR | 3.6
clone 1023 (antibody, V domains shown, scFv on yeast at selection; human IgG4/kappa IgG as purified) VH: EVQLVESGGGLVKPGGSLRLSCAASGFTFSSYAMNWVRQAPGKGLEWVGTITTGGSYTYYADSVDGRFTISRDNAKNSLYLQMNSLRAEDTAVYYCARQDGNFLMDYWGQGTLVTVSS VL: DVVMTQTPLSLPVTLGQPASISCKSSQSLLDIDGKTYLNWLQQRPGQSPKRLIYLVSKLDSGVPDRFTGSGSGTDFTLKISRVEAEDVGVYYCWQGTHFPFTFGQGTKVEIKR | 40.8
clone 3016 (antibody, V domains shown) VH: EVQLVESGGGLVKPGGSLRLSCAASGFTFSSYAMNWVRQAPGKGLEWVSTITTGGSHTYYADSVEGRFTISRDNAKNSLYLQMNSLRAEDTAVYYCARQDGNFLMDYWGQGTLVTVSS VL: DVVMTQTPLSLPVTLGQPASISCKSSQSLLDSDGKTYLNWLQQRPGQSPKRLIYLVSKLDSGVPDRFTGSGSGTDFTLKISRVEAEDVGVYYCWQGTHLPFTFGQGTKVEIKR | 4.8

Fill in: FXa assay % of FXa alone, 5 nM Ab, 10 nM TFPI of clone 3024 (antibody, V domains shown) VH: EVQLVESGGGLVKPGGSLRLSCAASGFTFSSYAMSWVRQAPGKGLEWVSTITTGGSYTYYADSVQGRFTISRDNAKNSLYLQMNSLRAEDTAVYYCARQDGNFLMDYWGQGTLVTVSS VL: DVVMTQTPLSLPVTLGQPASISCKSSQSLLDSDGKTYLNWLQQRPGQSPKRLIYLVSKLDSGVPDRFTGSGSGTDFTLKISRVEAEDVGVYYCWQGTHLPFTFGQGTKVEIKR is ___ 4.2
